assay: NCI Yeast Anticancer Drug Screen. Data for the mec2-1 strain (AID 157)
protocol conditions: S. cerevisiae mec2-1 strain, at 5.0 µM (retest, dose inferred, filed as 0.5)
Description: Growth inhibition of yeast strains with defined genetic alterations is measured as a screen for potential anti-cancer activity. Selected strains with alterations in DNA damage repair or cell cycle control were exposed to compounds and growth inhibition was measured relative to vehicle treated controls. The strain used in this assay is mec2-1
Compounds without any hit were thinned out: in the full panel of roughly 79,000, 15% have a hit. Calls of active or inactive are those of the source. Rule as the data show it: active = growth inhibition above about 70%; inactive = the rest.
Answer with one of the outcomes given here: y = active, n = inactive

# input Per the records of this test, what outcome belongs to `Cc1ccc(C(C)C)c(C(=C2C=CC(=[N+](C)C)C=C2)c2c(C(C)C)ccc(C)c2O)c1O` ?
# output n

# input Per the records of this test, what outcome belongs to `CC[C@@]1(OC(=O)CN(C)C)C(=O)OCc2c1cc1n(c2=O)Cc2cc3ccccc3nc2-1` ?
# output n

# input Per the records of this test, what outcome belongs to c1ccc(C2=NNC3c4ccccc4-c4ccccc4N3C2)cc1 (stereo not given) ?
# output n

# input Per the records of this test, what outcome belongs to `N#C/C(=C1C=C/C(=N\O)C(Cl)=C\1)c1ccccc1` ?
# output n

# input Per the records of this test, what outcome belongs to `CCOC(=O)/C(O)=C(/C=N/C(=S)Nc1c(CC)cccc1CC)C(=O)OCC` ?
# output n

# input Per the records of this test, what outcome belongs to `Cc1ccc(N(C=O)c2c([N+](=O)[O-])cc([N+](=O)[O-])c3c2=[N+]([O-])CN=3)cc1` ?
# output n

# input Per the records of this test, what outcome belongs to `O=C1c2ccccc2C(=O)C1C(c1ccc(F)cc1)C1C(=O)c2ccccc2C1=O` ?
# output n

# input Per the records of this test, what outcome belongs to `Cn1c(COc2ccc(/C=N/NC(=O)CCC(=O)N/N=C/c3ccc(OCc4c[n+]5ccccc5n4C)cc3)cc2)c[n+]2ccccc12` ?
# output n

---

assay: NCI Yeast Anticancer Drug Screen. Data for the wt1 strain (AID 149);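 also: 0% = growth of vehicle-treated wt1 cultures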
protocol conditions: S. cerevisiae wt1 strain (SPY 50644) growth inhibition; at 1.2 µM; hits give high values
Procedure: Growth inhibition of yeast strains with defined genetic alterations is measured as a screen for potential anti-cancer activity. Selected strains with alterations in DNA damage repair or cell cycle control were exposed to compounds and growth inhibition was measured relative to vehicle treated controls. The strain used in this assay is wt1
About 79,000 compounds went through this panel and 15% of them were active in at least one assay; those are over-represented in the sample as a whole.
measured property: growth inhibition (%)
Reply numerically in %, unit not repeated.

Field: example entries. Status: answers known.
molecule: O=C(CCC(=O)c1ccc(O)cc1)Oc1ccc(O)cc1
growth inhibition [%]: -2
//
molecule: O=C(Nn1c(-c2ccccc2)nc2ccccc2c1=O)c1ccc(Cl)cc1
growth inhibition [%]: 23
//
molecule: Cc1ccnc(NS(=O)(=O)c2ccc(Nc3c4ccccc4nc4ccccc34)cc2)n1
growth inhibition [%]: 14
//
molecule: c1cc(Nc2ccc3c(c2)OCO3)c2cc(C3CCCCC3)ccc2n1
growth inhibition [%]: 0
//
molecule: COc1ccc(C(=O)NCCN(C)C)c2nc3ccccc3cc12
growth inhibition [%]: -11

# input Any idea what its growth inhibition is? The molecule is CCOc1ccccc1N1C(=O)CC(Sc2ccccc2N)C1=O (stereo not given)
# output 12

# input Any idea what its growth inhibition is? The molecule is `O=c1oc(C(C(F)(F)F)C(F)(F)F)nc2ccccc12`
# output 4
